B1: Ankyrin repeat and SOCS box protein 14, residues 532 to 572; numbered along this chain, A6NK59 (parent)
chain: RSLKHLCRLKIRKCMGRLHLRCPVFMSFLPLPNRLKAYVLY

- Variants of: B1
- Protocol: abundance fitness (aPCA) (normalised: wild type 0, dead -1); higher = more abundant; growth selection in yeast, the domain comes from the species named
- Experimental Parameters: Homo sapiens
Everything with abundance fitness lower than -0.3 is criterion not met; everything else, including exactly -0.3, is criterion met.

Q: Tell me whether abundance fitness is at least -0.3 here: K36P
A: criterion not met

Q: API: above_or_equal(metric=abundance fitness, cutoff=-0.3) for item R34S
A: criterion met

Q: Reported abundance fitness at or above -0.3? F28P
A: criterion not met

Q: Kindly determine if abundance fitness recorded for C22M is above or exactly -0.3.
A: criterion met

Q: hey, is abundance fitness for this one >= -0.3? L20R
A: criterion not met

Q: I'd appreciate it if you could say whether R34E has abundance fitness at least equal to -0.3.
A: criterion met

Q: Does abundance fitness meet or surpass -0.3 for H5N ?
A: criterion met
